Test: small-molecule microarray binders of probe aEGFR, primary screen, biochemical, biotinylated probe, 635/667 nm fluorescence (AID 1097);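 note: probe is a biotinylated anti-EGFR antibody binding compounds printed on slides; score combines fluorescence near 667 nm and signal to noise of each spot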
Settings: higher = more signal
For each record, write down the corresponding composite z-score.
When you answer, write just the number.

Task: Give its composite z-score value. Item: CN(C)C(=O)[C@@]1(Cc2ccccc2CN=[N+]=[N-])N=C(c2ccc(OCCCO)cc2)O[C@H]1c1ccccc1CN=[N+]=[N-]
Output: 0.424

Task: Give its composite z-score value. Item: O=C1O[C@H](c2ccccc2)[C@H](c2ccccc2)N2[C@H]1[C@@H](C(=O)Nc1nc3ccccc3s1)[C@]1(C(=O)Nc3ccc(C#CC4(O)CCCCCC4)cc31)[C@H]2c1ccccc1OCCO
Output: -0.0564

Task: Give its composite z-score value. Item: Cn1cccc1C(O)C1C=CC2C(=O)NC(=O)C2N1Nc1ccc(Cl)cc1Cl (configuration not stated)
Output: 0.0201

Task: Give its composite z-score value. Item: COc1ccc([Si](C)(C)[C@H]2[C@H](CC(=O)N(CCO)Cc3ccccc3)O[C@@]3(C(=O)N(Cc4cccc(N5CCOC5=O)c4)c4ccccc43)[C@@H]2C)cc1
Output: -0.167

Task: Give its composite z-score value. Item: CN(C)CCCNC(=O)[C@@]1(C)c2ccccc2C(=O)N(Cc2ccccc2)[C@H]1c1ccc(CO)cc1
Output: -0.0639

Task: Give its composite z-score value. Item: COc1ccc(-c2cc3c(c(CCc4ccccc4)n2)[Si](C(C)C)(C(C)C)OC3)cn1
Output: -0.0828

Task: Give its composite z-score value. Item: CN(C)C(=O)C1N=C(c2ccc(OCCCO)cc2)N(c2ccccc2)O1 (configuration not stated)
Output: 0.123
